Each recorded value in this set is attributed to patent US11958831B2.

- measured target: UniProtKB Q9NWZ3
property label: IC50 (nM)

Below, 3 compounds whose answers are already recorded.
> print(dat)
                               input.smiles  unit.spec  measured
1  O=C(Nc1cn(C2CN(C3CCN(C(=O)CO)CC3)C2)nc1C(F)F)c1cccc(-c2cnn(CC(F)F)c2)n1         nM      0.99
2  C[C@H](O)C(=O)N1CCC(N2CC(n3cc(NC(=O)c4cccc(-c5cc[nH]n5)n4)c(C(F)F)n3)C2)CC1         nM      0.69
3  COC(=O)N1CCC(N2CC(n3cc(NC(=O)c4cccc(-c5cc[nH]n5)n4)c(C(F)F)n3)C2)CC1         nM      0.65

I = C[C@@H](O)C(=O)N1CCC(N2CC(n3cc(NC(=O)c4cccc(-c5cnn(CC(F)F)c5)n4)c(C(F)F)n3)C2)CC1
II = O=C(Nc1cn(C2CN(C3CCN(C(=O)CO)CC3)C2)nc1C(F)F)c1cccc(-c2cc[nH]n2)n1
Would you mind telling me which has the lower recorded IC50 between I and II ? Field: selected label. Fill in the label of the entry you choose. II

====

- measured target: IRAK4 kinase (Homo sapiens (Human), UniProt Q9NWZ3)
- Sequence (Q9NWZ3 whole entry): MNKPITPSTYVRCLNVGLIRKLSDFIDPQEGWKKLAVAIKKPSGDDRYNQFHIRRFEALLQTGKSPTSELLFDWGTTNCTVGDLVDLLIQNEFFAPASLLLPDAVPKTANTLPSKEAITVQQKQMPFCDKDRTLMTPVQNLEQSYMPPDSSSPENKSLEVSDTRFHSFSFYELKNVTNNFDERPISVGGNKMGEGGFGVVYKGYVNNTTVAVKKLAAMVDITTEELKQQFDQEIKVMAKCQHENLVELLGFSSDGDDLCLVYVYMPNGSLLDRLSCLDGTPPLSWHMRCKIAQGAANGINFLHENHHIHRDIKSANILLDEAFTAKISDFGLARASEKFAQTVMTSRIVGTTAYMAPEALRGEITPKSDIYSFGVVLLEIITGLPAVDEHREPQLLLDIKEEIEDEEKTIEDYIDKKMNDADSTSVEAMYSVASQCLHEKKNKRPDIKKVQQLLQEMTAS
property label: IC50 (nM)

Below, 6 compounds whose answers are already recorded.
> print(dat)
                               input.smiles                           measured.target  property.label  measured
1  CC(=O)N1CCC(N2CC(n3cc(NC(=O)c4cccc(-c5cn[nH]c5)n4)c(C(F)F)n3)C2)CC1  IRAK4 kinase (Homo sapiens (Human), UniProt Q9NWZ3)            IC50       1.9
2  CC(=O)N1CCC(N2CC(n3cc(NC(=O)c4cccc(-c5cnn(CC(C)(C)O)c5)n4)c(C(F)F)n3)C2)CC1  IRAK4 kinase (Homo sapiens (Human), UniProt Q9NWZ3)            IC50       3.9
3  CC(=O)N1CCC(N2CC(n3cc(NC(=O)c4cccc(-c5cnn(C(C)(C)CN)c5)n4)c(C(F)F)n3)C2)CC1  IRAK4 kinase (Homo sapiens (Human), UniProt Q9NWZ3)            IC50      0.73
4  CC(C)(O)C(=O)N1CCC(N2CC(n3cc(NC(=O)c4cccc(-c5cnn(CC(F)F)c5)n4)c(C(F)F)n3)C2)CC1  IRAK4 kinase (Homo sapiens (Human), UniProt Q9NWZ3)            IC50      0.96
5  C[C@@H](O)C(=O)N1CCC(N2CC(n3cc(NC(=O)c4cccc(-c5cnn(CC(F)(F)F)c5)n4)c(C(F)F)n3)C2)CC1  IRAK4 kinase (Homo sapiens (Human), UniProt Q9NWZ3)            IC50      0.79
6  COC(=O)N1CCC(N2CC(n3cc(NC(=O)c4cccc(-c5cn[nH]c5)n4)c(C(F)F)n3)C2)CC1  IRAK4 kinase (Homo sapiens (Human), UniProt Q9NWZ3)            IC50       1.7

1 = CC(=O)N1CCC(N2CC(n3cc(NC(=O)c4cccc(-c5cc[nH]n5)n4)c(C(F)F)n3)C2)CC1
2 = CS(=O)(=O)N1CCC(N2CC(n3cc(NC(=O)c4cccc(-c5cnn(CC(F)(F)F)c5)n4)c(C(F)F)n3)C2)CC1
Would you mind telling me which has the lower recorded IC50 between 1 and 2 ? Field: selected label. Fill in the label of the entry you choose. 1
(1: 0.59 nM, 2: 4.9 nM)
